System: production of human TNF-α by PBMC in response to LPS
Assay: TNF-α assay (LPS-stimulated PBMC, sandwich ELISA)
Assay type: cell-based
Details: LPS 1 μg/ml, 72 hours; read-out: TNF α
Measurement Name: log10 of IC50 (log10 of the value in nM)
Response schema: value (number) is log10 of IC50 in units of nM.

For the compound shown here, COc1ccc(-c2ccc3nc(N)nc(NCc4cccs4)c3n2)cc1OC [Example 32] , give the reported log10 of IC50.
2.90

For the compound shown here, COc1ccc(-c2ccc3nc(N)nc(NCc4ccccn4)c3n2)cc1OC [Example 35] , give the reported log10 of IC50.
2.85

For the compound shown here, COc1ccc(-c2ccc3nc(N)nc(NCCN4CCOCC4)c3n2)cc1OC [Example 33] , give the reported log10 of IC50.
2.85

For the compound shown here, COc1cc(-c2ccc3nc(N)nc(N4CCN(C(=O)Nc5cccc(C)c5)CC4)c3n2)ccc1O [Example 104] , give the reported log10 of IC50.
2.48

For the compound shown here, COc1ccc(-c2ccc3ncnc(N4CCN(C(=O)Nc5cccs5)CC4)c3n2)cc1OC [Example 109] , give the reported log10 of IC50.
2.11

For the compound shown here, COc1ccc(-c2ccc3ncnc(N4CCN(C(=O)Nc5ccc(F)c(Cl)c5)CC4)c3n2)cc1OC [Example 108] , give the reported log10 of IC50.
2.30

For the compound shown here, COc1ccc(-c2ccc3ncnc(N4CCN(C(=O)COc5ccc(Cl)cc5)CC4)c3n2)cc1OC [Example 113] , give the reported log10 of IC50.
2.48

For the compound shown here, COc1ccc(-c2ccc3nc(N(C)C)nc(N4CCN(C(=O)Nc5cccc(C)c5)CC4)c3n2)cc1OC [Example 15] , give the reported log10 of IC50.
3.52

For the compound shown here, COc1ccc(-c2ccc3nc(N)nc(N4CCN(C(=O)Nc5cccc(Cl)c5)CC4)c3n2)cc1OC [Example 58] , give the reported log10 of IC50.
2.41

For the compound shown here, Nc1nc(N2CCOCC2)c2nc(-c3ccsc3)ccc2n1 [Example 233] , give the reported log10 of IC50.
3.57

For the compound shown here, COc1ccc(-c2ccc3nc(N)nc(N4CCN(C(=O)Nc5cc(Cl)nc(Cl)c5)CC4)c3n2)cc1OC [Example 55] , give the reported log10 of IC50.
2.60

For the compound shown here, COc1ccc(-c2ccc3nc(N)nc(N4CCN(c5ccc(F)cc5)CC4)c3n2)cc1OC [Example 43] , give the reported log10 of IC50.
1.95

For the compound shown here, CCOc1ccc(-c2ccc3nc(N)nc(N4CCN(C(=O)Nc5ccc(F)cc5)CC4)c3n2)cc1OC [Example 102] , give the reported log10 of IC50.
2.78

For the compound shown here, Cc1noc(C)c1-c1ccc2nc(N)nc(N3CCOCC3)c2n1 [Example 246] , give the reported log10 of IC50.
3.20

For the compound shown here, Nc1nc(N2CCOCC2)c2nc(-c3ccco3)ccc2n1 [Example 232] , give the reported log10 of IC50.
3.72

For the compound shown here, COc1cc(-c2ccc3nc(N)nc(N4CCN(C(=O)Nc5ccc(F)cc5)CC4)c3n2)ccc1OC(C)C [Example 103] , give the reported log10 of IC50.
3.81

For the compound shown here, COc1ccc(-c2ccc3nc(N)nc(N4CCN(c5ccccn5)CC4)c3n2)cc1OC [Example 47] , give the reported log10 of IC50.
1.70
